system: EMT6; assay: In vitro phototoxicity in EMT-6 cells at 1 uM after 24 hr r MTT assay; assay type: functional, Mus musculus
Entries and their LD90
All answers are understood in J cm**-2, so give the number only.

// worked examples, LD90 included
chem.smiles	LD90 (J cm**-2)
C[C@]12CC[C@@H]3c4ccc(O)cc4CC[C@H]3[C@@H]1CC[C@]2(O)c1ccc(C#CC#Cc2ccc3c(c2)-c2nc-3nc3[nH]c(nc4nc(nc5[nH]c(n2)c2ccc(S(=O)(=O)[O-])cc52)-c2ccc(S(=O)(=O)[O-])cc2-4)c2ccc(S(=O)(=O)[O-])cc32)cc1.[Na+].[Na+].[Na+].[Zn]	5.3
C[C@]12CC[C@@H]3c4ccc(O)cc4CC[C@H]3[C@@H]1CC[C@]2(O)C#Cc1cccc2cc3c(cc12)-c1nc-3nc2[nH]c(nc3nc(nc4[nH]c(n1)c1ccc(S(=O)(=O)[O-])cc41)-c1ccc(S(=O)(=O)[O-])cc1-3)c1cc(S(=O)(=O)[O-])ccc21.[Na+].[Na+].[Na+].[Zn]	3
C[C@]12CC[C@@H]3c4ccc(O)cc4CC[C@H]3[C@@H]1CC[C@]2(O)CCCCC#CC#Cc1cccc2c1-c1nc-2nc2[nH]c(nc3nc(nc4[nH]c(n1)c1ccc(S(=O)(=O)[O-])cc41)-c1ccc(S(=O)(=O)[O-])cc1-3)c1ccc(S(=O)(=O)[O-])cc21.[Na+].[Na+].[Na+].[Zn]	4.3
C[C@]12CC[C@@H]3c4ccc(O)cc4CC[C@H]3[C@@H]1CC[C@]2(O)c1cccc(C#CC#Cc2ccc3c(c2)-c2nc-3nc3[nH]c(nc4nc(nc5[nH]c(n2)c2ccc(S(=O)(=O)[O-])cc52)-c2ccc(S(=O)(=O)[O-])cc2-4)c2ccc(S(=O)(=O)[O-])cc32)c1.[Na+].[Na+].[Na+].[Zn]	4
C[C@]12CC[C@@H]3c4ccc(O)cc4CC[C@H]3[C@@H]1CC[C@]2(O)CCCCC#CC#Cc1ccc2c(c1)-c1nc-2nc2[nH]c(nc3nc(nc4[nH]c(n1)c1ccc(S(=O)(=O)[O-])cc41)-c1ccc(S(=O)(=O)[O-])cc1-3)c1ccc(S(=O)(=O)[O-])cc21.[Na+].[Na+].[Na+].[Zn]	2.9

Here is another compound to look at.
The measured LD90 associated with C[C@]12CC[C@@H]3c4ccc(O)cc4CC[C@H]3[C@@H]1CC[C@]2(O)C#Cc1ccc2c(c1)-c1nc-2nc2[nH]c(nc3nc(nc4[nH]c(n1)c1ccc(S(=O)(=O)[O-])cc41)-c1ccc(S(=O)(=O)[O-])cc1-3)c1cc(S(=O)(=O)[O-])ccc21.[Na+].[Na+].[Na+].[Zn] reads 5.1
